Field: remaining at 10 min. Provide a value for each of the molecules that follow.
- MEASUREMENT NOTES: Metabolic stability in rat liver microsomes assessed as parent compound remaining after 10 mins
- Assay type: ADME, microsome
- CONDITION DETAILS: read-out: Stability
Answers are plain numbers, in %.

COc1cnc(-n2ccc(C)n2)c2[nH]cc(C(=O)C(=O)N3CCN(C(=O)c4ccccc4)CC3)c12; 100
CNC(=O)c1ccn(-c2ncc(OC)c3c(C(=O)C(=O)N4CCN(C(=O)c5ccccc5)CC4)c[nH]c23)n1; 81
COc1cnc(-c2cnccn2)c2[nH]cc(C(=O)C(=O)N3CCN(C(=O)c4ccccn4)CC3)c12; 27
COc1cnc(-n2cnc(N3CCOCC3)n2)c2[nH]cc(C(=O)C(=O)N3CCN(C(=O)c4ccccc4)CC3)c12; 89
COc1cnc(-n2ccnn2)c2[nH]cc(C(=O)C(=O)N3CCN(C(=O)c4ccccc4)CC3)c12; 82

For every item below, please supply its remaining at 10 min.
1. COc1cnc(-c2cncc(=O)[nH]2)c2[nH]cc(C(=O)C(=O)N3CCN(C(=O)c4ccccc4)CC3)c12
2. COc1cnc(-n2cnc(N)n2)c2[nH]cc(C(=O)C(=O)N3CCN(C(=O)c4ccccc4)[C@H](C)C3)c12

1: 100; 2: 99
